Target: Horseradish peroxidase (Armoracia rusticana, UniProt P00433)
Sequence (P00433 31-353): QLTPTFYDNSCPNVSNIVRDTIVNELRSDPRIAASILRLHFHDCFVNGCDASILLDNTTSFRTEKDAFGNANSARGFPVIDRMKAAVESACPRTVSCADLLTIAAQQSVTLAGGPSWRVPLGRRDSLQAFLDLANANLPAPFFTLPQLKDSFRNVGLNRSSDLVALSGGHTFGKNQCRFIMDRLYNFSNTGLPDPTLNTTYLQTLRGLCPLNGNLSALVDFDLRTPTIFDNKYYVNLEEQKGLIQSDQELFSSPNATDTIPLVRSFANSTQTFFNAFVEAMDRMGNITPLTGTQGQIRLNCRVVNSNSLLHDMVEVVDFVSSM
Assay: Comparison of substrates for HRP detection on membranes, reflectance densitometer
Assay type: biochemical
Conditions: Nitrocellulose membrane; amount of HRP 0.3 mg; substrate 2 mg/mL, approximately three minutes
measured-parameter: color density of spot

| compound | color density of spot |
| --- | --- |
| Cc1cc(N)c(N)cc1C | .55 arbitrary units |
| Nc1ccc(Cl)cc1N | 1.25 arbitrary units |
| Nc1ccc(-c2ccc(N)c(N)c2)cc1N [DAB, 3,3'-diaminobenzidine, reference compound] | 1.03 arbitrary units |
| Nc1cc(Cl)c(Cl)cc1N | .60 arbitrary units |
| Cc1ccc(N)c(N)c1 | .38 arbitrary units |

Then this compound:
What measured color density of spot goes with Cc1cc(-c2cc(C)c(N)c(C)c2)cc(C)c1N [TMB, 3,3',5,5'-tetramethylbenzidine, reference compound] ?
.09 arbitrary units

* * *

Measured color density of spot accompanies every entry in the list below.
target: Horseradish peroxidase (Armoracia rusticana); assay: Comparison of substrates for HRP detection on membranes, reflectance densitometer; type: biochemical; conditions: IMMUNODYNE nylon membrane; amount of HRP 30 pg; substrate 2 mg/mL, approximately three minutes

| compound | measured-parameter | result |
| --- | --- | --- |
| Cc1cc(-c2cc(C)c(N)c(C)c2)cc(C)c1N [TMB, 3,3',5,5'-tetramethylbenzidine, reference compound] | color density of spot | .00 arbitrary units |

What measured color density of spot goes with Cc1cc(N)c(N)cc1C [4,5-Dimethyl-1,2-phenylenediamine] ?
.00 arbitrary units

What measured color density of spot goes with Nc1ccc(-c2ccc(N)c(N)c2)cc1N [DAB, 3,3'-diaminobenzidine, reference compound] ?
.00 arbitrary units

What measured color density of spot goes with Nc1cc(Cl)c(Cl)cc1N [4,5-Dichloro-1,2-phenylenediamine] ?
.00 arbitrary units

What measured color density of spot goes with Nc1ccc(Cl)cc1N [4-Chloro-1,2-phenylenediamine] ?
.06 arbitrary units

What measured color density of spot goes with Cc1ccc(N)c(N)c1 [DAT, 3,4 Diaminotoluene] ?
.04 arbitrary units

* * *

Target: UniProt:P00433
Sequence (P00433 31-353): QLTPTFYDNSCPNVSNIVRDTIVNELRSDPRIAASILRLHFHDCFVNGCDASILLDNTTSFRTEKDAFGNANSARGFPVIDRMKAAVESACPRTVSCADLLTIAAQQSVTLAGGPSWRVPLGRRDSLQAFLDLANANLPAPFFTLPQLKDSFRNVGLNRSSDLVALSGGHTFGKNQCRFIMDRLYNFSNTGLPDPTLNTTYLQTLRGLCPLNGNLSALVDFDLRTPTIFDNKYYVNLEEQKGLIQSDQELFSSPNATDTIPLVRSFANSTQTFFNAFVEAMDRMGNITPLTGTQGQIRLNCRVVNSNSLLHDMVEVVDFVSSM
Assay: Comparison of substrates for HRP detection on membranes, reflectance densitometer
Assay type: biochemical
Conditions: Nitrocellulose membrane; amount of HRP 30 ng; substrate 2 mg/mL, approximately three minutes
Measured color density of spot accompanies every entry in the list below.

Some molecules with recorded color density of spot:
| molecule | color density of spot |
| --- | --- |
| Nc1cc(Cl)c(Cl)cc1N [4,5-Dichloro-1,2-phenylenediamine] | .43 arbitrary units |
| Nc1ccc(Cl)cc1N [4-Chloro-1,2-phenylenediamine] | .87 arbitrary units |
| Nc1ccc(-c2ccc(N)c(N)c2)cc1N [DAB, 3,3'-diaminobenzidine, reference compound] | .43 arbitrary units |

What measured color density of spot goes with Cc1ccc(N)c(N)c1 [DAT, 3,4 Diaminotoluene] ?
.28 arbitrary units

What measured color density of spot goes with Cc1cc(-c2cc(C)c(N)c(C)c2)cc(C)c1N [TMB, 3,3',5,5'-tetramethylbenzidine, reference compound] ?
.09 arbitrary units

What measured color density of spot goes with Cc1cc(N)c(N)cc1C [4,5-Dimethyl-1,2-phenylenediamine] ?
.43 arbitrary units

* * *

Target: Horseradish peroxidase (Armoracia rusticana)
Sequence (P00433 31-353): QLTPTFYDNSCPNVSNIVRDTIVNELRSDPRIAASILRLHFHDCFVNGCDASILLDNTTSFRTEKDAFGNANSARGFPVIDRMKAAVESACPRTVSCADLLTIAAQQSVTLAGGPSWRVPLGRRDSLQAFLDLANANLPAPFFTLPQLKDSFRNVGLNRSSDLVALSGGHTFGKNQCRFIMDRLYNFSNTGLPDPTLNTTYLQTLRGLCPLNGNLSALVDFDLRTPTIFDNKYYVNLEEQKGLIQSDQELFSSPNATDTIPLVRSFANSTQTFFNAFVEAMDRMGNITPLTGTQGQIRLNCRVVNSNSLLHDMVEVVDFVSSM
Assay: Comparison of substrates for HRP detection on membranes, reflectance densitometer
Assay type: biochemical
Conditions: IMMUNODYNE nylon membrane; amount of HRP 3 ng; substrate 2 mg/mL, approximately three minutes
Method: Horseradish peroxidase was diluted serially in 10-fold steps in a buffer containing 51 mM phosphate, 24 mM citrate, pH 5.0. Spot volumes of 1 μL of each stock were applied to either nitrocellulose (0.45 micron, Schleicher and Schuell) or IMMUNODYNE™ nylon immunoaffinity membrane (5 micron, Pall). […] The colored spots were quantitated with a reflectance densitometer (Gretag model 183). […]
Measured color density of spot accompanies every entry in the list below.

Some compounds with recorded color density of spot:
| compound | measured-parameter | result |
| --- | --- | --- |
| Cc1cc(N)c(N)cc1C | color density of spot | .22 arbitrary units |
| Nc1cc(Cl)c(Cl)cc1N | color density of spot | .10 arbitrary units |
| Cc1cc(-c2cc(C)c(N)c(C)c2)cc(C)c1N [TMB, 3,3',5,5'-tetramethylbenzidine, reference compound] | color density of spot | .11 arbitrary units |
| Cc1ccc(N)c(N)c1 | color density of spot | .54 arbitrary units |
| Nc1ccc(-c2ccc(N)c(N)c2)cc1N [DAB, 3,3'-diaminobenzidine, reference compound] | color density of spot | .22 arbitrary units |

What measured color density of spot goes with Nc1ccc(Cl)cc1N ?
.68 arbitrary units

* * *

Measured color density of spot accompanies every entry in the list below.
Target: UniProtKB P00433
Sequence (P00433 31-353): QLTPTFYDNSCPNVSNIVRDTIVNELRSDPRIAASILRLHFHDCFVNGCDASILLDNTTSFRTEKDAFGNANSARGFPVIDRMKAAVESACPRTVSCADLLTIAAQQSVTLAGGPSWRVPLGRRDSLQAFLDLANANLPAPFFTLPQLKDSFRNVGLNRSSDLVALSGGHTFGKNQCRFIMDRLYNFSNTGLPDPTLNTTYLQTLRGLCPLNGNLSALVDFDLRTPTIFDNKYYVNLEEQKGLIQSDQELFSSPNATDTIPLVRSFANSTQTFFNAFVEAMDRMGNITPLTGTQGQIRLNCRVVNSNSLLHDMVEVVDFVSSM
Assay: Comparison of substrates for HRP detection on membranes, reflectance densitometer
Type: biochemical
Conditions: IMMUNODYNE nylon membrane; amount of HRP 30 ng; substrate 2 mg/mL, approximately three minutes

Some molecules with recorded color density of spot:
| molecule | color density of spot |
| --- | --- |
| Cc1cc(-c2cc(C)c(N)c(C)c2)cc(C)c1N [TMB, 3,3',5,5'-tetramethylbenzidine, reference compound] | .19 arbitrary units |
| Cc1cc(N)c(N)cc1C [4,5-Dimethyl-1,2-phenylenediamine] | .50 arbitrary units |
| Nc1cc(Cl)c(Cl)cc1N [4,5-Dichloro-1,2-phenylenediamine] | .41 arbitrary units |
| Cc1ccc(N)c(N)c1 [DAT, 3,4 Diaminotoluene] | .85 arbitrary units |
| Nc1ccc(Cl)cc1N [4-Chloro-1,2-phenylenediamine] | 1.89 arbitrary units |

What measured color density of spot goes with Nc1ccc(-c2ccc(N)c(N)c2)cc1N [DAB, 3,3'-diaminobenzidine, reference compound] ?
.78 arbitrary units

* * *

Measured color density of spot accompanies every entry in the list below.
biological target: Horseradish peroxidase (Armoracia rusticana, UniProt P00433); test: Comparison of substrates for HRP detection on membranes, reflectance densitometer; format: biochemical; details: IMMUNODYNE nylon membrane; amount of HRP 0.3 ng; substrate 2 mg/mL, approximately three minutes

Some molecules with recorded color density of spot:
| molecule | result |
| --- | --- |
| Cc1cc(-c2cc(C)c(N)c(C)c2)cc(C)c1N [TMB, 3,3',5,5'-tetramethylbenzidine, reference compound] | .00 arbitrary units |
| Cc1cc(N)c(N)cc1C | .05 arbitrary units |
| Nc1ccc(Cl)cc1N | .12 arbitrary units |
| Nc1ccc(-c2ccc(N)c(N)c2)cc1N [DAB, 3,3'-diaminobenzidine, reference compound] | .04 arbitrary units |
| Cc1ccc(N)c(N)c1 | .21 arbitrary units |

Then this molecule:
Report color density of spot for Nc1cc(Cl)c(Cl)cc1N tested on Horseradish peroxidase (Armoracia rusticana, UniProt P00433).
.00 arbitrary units
